measured_target: T1, human chitinase-3-like protein 1 (hCHI3L1) (human, UniProt P36222 22-383)
T1 construct: Antigen used for phage display panning and ELISA; also called YKL-40; CHI3L1 antigen protein
T1 sequence (P36222 22-383 limits assumed): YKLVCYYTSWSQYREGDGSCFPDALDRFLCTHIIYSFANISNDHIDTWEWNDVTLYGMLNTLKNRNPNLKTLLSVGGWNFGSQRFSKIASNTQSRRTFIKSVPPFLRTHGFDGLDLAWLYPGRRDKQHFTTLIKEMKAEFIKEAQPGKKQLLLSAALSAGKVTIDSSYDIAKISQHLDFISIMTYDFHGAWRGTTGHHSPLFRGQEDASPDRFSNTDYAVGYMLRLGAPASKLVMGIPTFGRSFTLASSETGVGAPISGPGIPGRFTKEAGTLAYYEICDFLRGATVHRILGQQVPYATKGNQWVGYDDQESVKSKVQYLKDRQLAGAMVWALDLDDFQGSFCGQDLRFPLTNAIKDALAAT
protocol_notes: monoclonal phage ELISA, phage-displayed Fab on CHI3L1
value_kind: binding result

F2 Fab clone (phage-displayed) (Fab, V domains shown) VH: EVQLVESGGGLAQPGGSLRLSCAASGFTFSSYAMHWVRQAPGKGLEWVSSIKSSGGSKNYADSVKGRFTISRDNSKNTLYLQMNSLRAEDTAVYYCAKGYGASFDFWGQGTLVTVSS VL: DIQMTQSPSSLSASVGDRVTITCRASQDISSWLNWYQQKPGKAPKLLIYAASRLQSGVPSRFSGSGSGTDFTLTISSLQPEDFATYYCQQAYSFPWTFGQGTKVEIK :: binds
E7 Fab clone (phage-displayed) (Fab, V domains shown) VH: EVQLVESGGGLVQPGGSLRLSCAASGFTFSSYAMHWVRQAPGKGLEWVSAISSSGGSIYYADSVKGRFTISRDNSKNTLYLQMNSLRAEDTAVYYCAKQGLSFDIWGQGTLVTVSS VL: DIQMTQSPSSLSASVGDRVTITCRASQSISNWLNWYQQKPGKAPKLLIYATSRLQSGVPSRFSGSGSGTDFTLTISSLQPEDFATYYCQQSYSFPYTFGQGTKVEIK :: binds
H7 Fab clone (phage-displayed) (Fab, V domains shown) VH: EVQLVESGGGLVQPGGSLRLSCAASGFTFSSYGMHWVRQAPGKGLEWVSGISSSGGSKYYADSVKGRFTISRDNSKNTLYLQMNSLRAEDTAVYYCAKHGHQQMDFWGQGTLVTVSS VL: DIQMTQSPSSLSASVGDRVTITCRASQSISSWLNWYQQKPGKAPKLLIYAASRLQSGVPSRFSGSGSGTDFTLTISSLQPEDFATYYCQQTYSFPWTFGQGTKVEIK :: binds
